# target-of-assay: T1, human LILRA1 (human, UniProt O75019 17-489)
# T1 construct: whole, on cells; also called hLILRA1
# T1 sequence (O75019 17-489): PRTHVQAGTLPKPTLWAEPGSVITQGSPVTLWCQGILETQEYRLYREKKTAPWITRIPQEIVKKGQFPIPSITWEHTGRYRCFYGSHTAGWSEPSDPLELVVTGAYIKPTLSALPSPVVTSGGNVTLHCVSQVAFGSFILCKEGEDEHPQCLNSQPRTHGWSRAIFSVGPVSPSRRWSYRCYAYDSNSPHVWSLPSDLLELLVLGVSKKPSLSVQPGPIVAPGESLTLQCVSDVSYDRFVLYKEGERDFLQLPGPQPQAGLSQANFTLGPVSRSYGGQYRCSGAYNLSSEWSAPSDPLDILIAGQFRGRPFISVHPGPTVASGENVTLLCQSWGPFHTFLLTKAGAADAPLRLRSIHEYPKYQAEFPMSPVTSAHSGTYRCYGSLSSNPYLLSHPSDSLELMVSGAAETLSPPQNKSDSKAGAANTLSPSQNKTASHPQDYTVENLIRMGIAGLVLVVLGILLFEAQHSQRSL
# assay-text: FACS, 293F-hLILRA1 cells
property: MFI (MFI)
Provide only the numeric value, understood in MFI.

43-D12-F3-G11 (antibody, V domains shown, mouse monoclonal hybridoma antibody) VH: EVQVVESGPGLVAPSQSLSITCTVSGFSLTSYGVSWVRQPPGKGLEWLGVIWADGSTNYHSALLSRLSISKDNSKSQVFLKLNSLQTDDTATYYCAKGHWDGFAYWGQGTLVAVSA VL: DIVLTQSPAIMSTSPGEKVTLTCSASSSITSSYLYWYQQKPGSSPKLWIYSTSNLASGVPARFSGSGSGTSYYLTISSMEAEDAASYFCHQWSSYPPTFGGGTKLELK    22.2
42-C8-A12-F3-D11 (antibody, V domains shown, mouse monoclonal hybridoma antibody) VH: EVHLVESGGDLVKPGGSLKLSCAASGFTFSSHGMSWVRQTPDKRLEWVATISSGGIYTYHPDSVKGRFSISRDNAKKTLYLQMSSLKSEDTGIYYCTRGQVGNWYFDVWGAGTTVTVSS VL: DIVITQSPAIMSASPGEKVTINCSASSSVSYMHWFQQTPGTSPKLWIYSTSNLASGVPARFSGSGSGTFYSLTISRMEAEDAATYYCQQRSSYPLTFGAGTKLELK    27.3
36-F4-H1-D9 (antibody, V domains shown, mouse monoclonal hybridoma antibody) VH: EVKLLESGGGLVQPGGSLKLSCAASGFDFSRYWMIWVRQAPEKGLEWIGEINPDSSTINYTPSLKDKFIISRDNAKNTLYLQMSKVRSEDTALYYCARPYYRYDVGYFDVWGAGTTVTVSS VL: DIVMTQAPKVLLVSAGDRVTISCKASQSVSNAVVWYQQKPGQSPKLLIFYASNRYTGVPDRFTGSGYGTDFTFSISTVQAEDLAVYFCQQDYSSPWTFGGGTKLEIK    22.1
8-B3-F6-H8 (antibody, V domains shown, mouse monoclonal hybridoma antibody) VH: EVKVIESGGGLVQPGGSLKLSCAASGFDFSRYWMSWVRQAPGKGLEWIGEINPDSSAINYTPSLKDKFIISRDNAKNTLYLQMSKVRSEDTALYYCATSMTMDYWGQGTSVTVSS VL: DIVMTQSPSSMYASLGERVTITCKASQDIKSYLSWYQQKPWKSPKTLIYYATSLADGVPSRFSGSGSGQDYSLTISSLESDDTATYYCLQHGESPYTFGGGTKLEK    22.2
25-E7-A10-H6 (antibody, V domains shown, mouse monoclonal hybridoma antibody) VH: EVQLVESGGGLVQPGGSRKLSCAASGFTFSTFGMHWVRQAPEKGLEWVAYISSGSSTIYYADTVKGRFTISRDNPKNTLFLQMTSLRSEDTAMYYCARSTGTGAMDYWGQGTSVTVSS VL: DIQMTQTTSSLSASLGDRVTISCRASQDISKYLNWYQQKPDGTVKLLIYYTSRLHSGVPSRFSGSGSGTDYSLTISNLEQEDIATYFCQQGNTLPWTFGGGTKLEIK    23.1
7-B4-C1-C9 (antibody, V domains shown, mouse monoclonal hybridoma antibody) VH: EVQLQQSGTELVKPGASVKLSCKASGYTFTNYWMHWVKQRPGQGLEWIGEINPSNGRTNYNEKFKTKATLTVDKSSSTAYMQLSSLTSEDSAVYYCARSTYYGYDWYFDVWGAGTTVTVSS VL: DIVLTQSPSSMYASLGERVTITCKASQDINSYLSWFQQKPGKSPKTLIYRANRLLDGVPSRFSGGGSGQDYSLTISSLEHEDMGIYYCLQCDEFPHTFGGGTKLEIK    27.5

Note: attention shifts to another entry.
Exercise: I am curious: what MFI value has been reported for 2-H8-C9-F7-E2 (antibody, V domains shown, mouse monoclonal hybridoma antibody) VH: EVQLQQSGAELVKPGASVKLSCKASGYTFTNYWMHWVKQRPGQGLEWIGEINPSNGRTNYNEKFKSKATLTVDKSSSTAYMQLSSLTSEDSAVYYCARGSLTTVVPFDYWGQGTTLTVSS VL: DIQMTQTPSSLSASLGGKVTITCKASQDINNYIAWYQHKPGKGPRLLIHYTSTLQPGIPSRFSGSGSGRDYSFSISNLEPEDIATYFCLQYDILLTFGGGTKLEK ?
Key: 22.6
